# test.system: BRD4 BD2 (Homo sapiens, UniProt O60885)
# assay.procedure: AlphaScreen binding assay, BRD4 Bromodomain 2
pIC50: −log10 of the molar value.
observation.type: pIC50

{"columns": ["molecule", "measured.result"],
 "data": [
  ["CC(=O)N1c2ccc(-c3cnn(CC#N)c3)cc2N(C(=O)C2CC2)C[C@@H]1C [Example I-675]", "6.30 to 7.30"],
  ["CCS(=O)(=O)c1cccc(-c2ccc3c(c2)N(C(=O)OC2CCCCC2)C[C@H](C)N3C(C)=O)c1 [Example I-1245]", "6.30 to 7.30"],
  ["CC(=O)N1c2ccc(-c3ccc4c(c3)CCN4S(C)(=O)=O)cc2N(C(=O)OC(C)C)C[C@@H]1C [Example I-348]", "> 7.30"],
  ["CC(=O)N1c2ccc(-c3cnn(C4CC4)c3)cc2N(c2nn(C)c3ccc(F)cc23)C[C@@H]1C [Example I-55]", "> 7.30"],
  ["CC(=O)N1c2ccc(-c3ccc(-c4ccccc4)cc3)cc2N(C(=O)c2ccco2)C[C@@H]1C [Example I-798]", "6.30 to 7.30"],
  ["COc1ccc(Cl)c(OC(=O)N2C[C@H](C)N(C(C)=O)c3ccc(-c4cnn(C5CC5)c4)cc32)c1 [Example I-531]", "6.30 to 7.30"],
  ["CC(=O)N1c2ccc(-c3ccc4c(c3)CS(=O)(=O)N4)cc2N(C(=O)OC(C)C)C[C@@H]1C [Example I-1179]", "6.30 to 7.30"],
  ["CC(=O)N1c2ccc(-c3cnn(C4CC4)c3)cc2N(C(=O)Oc2cccc3nccnc23)C[C@@H]1C [Example I-1204]", "> 7.30"],
  ["CC(=O)N1c2ccc(-c3cccc(S(C)(=O)=O)c3)cc2N(C(=O)OC2CCOCC2)C[C@@H]1C [Example I-1226]", "6.30 to 7.30"],
  ["CC(=O)N1c2ccc(-c3ccc(S(C)(=O)=O)cc3)cc2N(C(=O)Oc2ccc(F)cc2F)C[C@@H]1C [Example I-1010]", "6.30 to 7.30"],
  ["CCOC(=O)N1C[C@H](C)N(C(C)=O)c2ccc(-c3cnn(C4COC4)c3)cc21 [Example I-9]", "6.30 to 7.30"],
  ["CCOC(=O)N1C[C@H](C)N(C(C)=O)c2ccc(-c3ccc(S(=O)(=O)CC(C)C)cc3)cc21 [Example I-1080]", "6.30 to 7.30"],
  ["CC(=O)N1c2ccc(-c3cnn(C4COC4)c3)cc2N(C(=O)CC(F)(F)F)C[C@@H]1C [Example I-108]", "6.30 to 7.30"],
  ["CC(=O)N1c2ccc(-c3ccc(N4CCS(=O)(=O)CC4)cc3)cc2N(C(=O)c2ccco2)C[C@@H]1C [Example I-417]", "> 7.30"],
  ["CC(=O)N1c2ccc(-c3cnn(Cc4ccnn4C)c3)cc2N(C(=O)C2CC2)C[C@@H]1C [Example I-652]", "6.30 to 7.30"]
]}

Where do the numbers come from? From patent US10703764B2.
